system: Key Broadleaf Weed and Crop Species; experiment: Post-Emergent Test II: postemergent herbicidal activity, visual rating after 14 d (Table 7); type: in vivo; details: post-emergence, 336 h, AMARE: redroot pigweed (Amaranthus retroflexus), 35 g ai/ha, read-out: Visual Growth Reduction (%) 14 Days After Application AMARE
For each entry below, report its pest or weed control at 35 g/ha value.

Ask | Looking for the measured pest or weed control at 35 g/ha of COC(=O)c1nc(-c2ccc(Cl)c3c2OC(F)(F)O3)c(C)c(N)c1Cl [Compound 94] , can you help?
Reply | 95 to 100%

Ask | Looking for the measured pest or weed control at 35 g/ha of Nc1cc(-c2ccc(Cl)c3c2OC(F)(F)O3)nc(C(=O)O)c1Cl [Compound 87] , can you help?
Reply | 95 to 100%

Ask | Looking for the measured pest or weed control at 35 g/ha of COC(=O)c1nc(-c2cccc3c2OCO3)nc(N)c1OC [Compound 98] , can you help?
Reply | 0 to 29%

Ask | Looking for the measured pest or weed control at 35 g/ha of COC(=O)c1nc(-c2c(F)ccc3c2OC(F)(F)O3)cc(N)c1Cl [Compound 90] , can you help?
Reply | 95 to 100%

Ask | Looking for the measured pest or weed control at 35 g/ha of COC(=O)c1nc(-c2cccc3c2OC(F)(F)O3)cc(N)c1Cl [Compound 84] , can you help?
Reply | 95 to 100%

Ask | Looking for the measured pest or weed control at 35 g/ha of COC(=O)c1nc(-c2cccc3c2OC(F)(F)O3)nc(N)c1OC [Compound 99] , can you help?
Reply | 0 to 29%

Ask | Looking for the measured pest or weed control at 35 g/ha of COC(=O)c1nc(-c2ccc3c(c2)COC3)c(F)c(N)c1Cl [Compound 103] , can you help?
Reply | 0 to 29%

Ask | Looking for the measured pest or weed control at 35 g/ha of COC(=O)c1nc(-c2ccc(Cl)c3c2OC(F)(F)O3)nc(N)c1OC [Compound 95] , can you help?
Reply | 95 to 100%

Ask | Looking for the measured pest or weed control at 35 g/ha of COC(=O)c1nc(-c2cccc3c2OCO3)cc(N)c1Cl [Compound 93] , can you help?
Reply | 0 to 29%

Ask | Looking for the measured pest or weed control at 35 g/ha of Nc1cc(-c2c(F)ccc3c2OC(F)(F)O3)nc(C(=O)O)c1Cl [Compound 91] , can you help?
Reply | 95 to 100%

Ask | Looking for the measured pest or weed control at 35 g/ha of COC(=O)c1nc(-c2ccc3c(c2)OCC3)c(F)c(N)c1Cl [Compound 100] , can you help?
Reply | 75 to 84%

Ask | Looking for the measured pest or weed control at 35 g/ha of COC(=O)c1nc(-c2ccc3c(c2)SCO3)c(F)c(N)c1Cl [Compound 105] , can you help?
Reply | 0 to 29%

Ask | Looking for the measured pest or weed control at 35 g/ha of COC(=O)c1nc(-c2ccc(F)c3c2OCO3)c(F)c(N)c1Cl [Compound 83] , can you help?
Reply | 95 to 100%

Ask | Looking for the measured pest or weed control at 35 g/ha of COC(=O)c1nc(-c2ccc(Cl)c3c2OC(F)(F)O3)cc(N)c1Cl [Compound 86] , can you help?
Reply | 95 to 100%

Ask | Looking for the measured pest or weed control at 35 g/ha of COC(=O)c1nc(-c2ccc3c(c2F)OC(F)(F)C3(F)F)cc(N)c1Cl [Compound 106] , can you help?
Reply | 30 to 44%

Ask | Looking for the measured pest or weed control at 35 g/ha of COc1c(N)nc(-c2ccc(Cl)c3c2OC(F)(F)O3)nc1C(=O)O [Compound 96] , can you help?
Reply | 95 to 100%

Ask | Looking for the measured pest or weed control at 35 g/ha of Nc1cc(-c2ccc(F)c3c2OC(F)(F)O3)nc(C(=O)O)c1Cl [Compound 89] , can you help?
Reply | 95 to 100%

Ask | Looking for the measured pest or weed control at 35 g/ha of COC(=O)c1nc(-c2ccc(F)c3c2OC(F)(F)O3)cc(N)c1Cl [Compound 88] , can you help?
Reply | 95 to 100%

Ask | Looking for the measured pest or weed control at 35 g/ha of Nc1c(F)c(-c2ccc3c(c2)COC3)nc(C(=O)O)c1Cl [Compound 104] , can you help?
Reply | 0 to 29%

Ask | Looking for the measured pest or weed control at 35 g/ha of COC(=O)c1nc(-c2ccc(F)c3c2OCO3)cc(N)c1Cl [Compound 92] , can you help?
Reply | 95 to 100%

Ask | Looking for the measured pest or weed control at 35 g/ha of Nc1c(F)c(-c2ccc3c(c2)OCC3)nc(C(=O)O)c1Cl [Compound 101] , can you help?
Reply | 95 to 100%

Ask | Looking for the measured pest or weed control at 35 g/ha of COC(=O)c1nc(-c2ccc(F)c3c2OCO3)nc(N)c1OC [Compound 97] , can you help?
Reply | 0 to 29%
